test system: Free fatty acid receptor 1 (Homo sapiens)
Sequence (O14842 whole entry): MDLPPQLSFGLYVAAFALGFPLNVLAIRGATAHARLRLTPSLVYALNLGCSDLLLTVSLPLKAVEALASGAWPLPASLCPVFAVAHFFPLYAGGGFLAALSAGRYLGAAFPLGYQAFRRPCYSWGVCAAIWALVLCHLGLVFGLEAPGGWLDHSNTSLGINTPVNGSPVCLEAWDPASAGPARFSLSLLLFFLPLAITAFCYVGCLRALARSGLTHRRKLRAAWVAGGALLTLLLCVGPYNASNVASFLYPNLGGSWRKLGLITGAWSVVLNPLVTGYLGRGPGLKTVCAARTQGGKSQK
assay name: Displacement of 3-[4-({2',6'-dimethyl-6-[(4-[3H])-phenylmethoxy]biphenyl-3-yl}methoxy)phenyl]propanoic acid from human GPR40 expressed in CHO cells after 90 mins by liquid scintillation counting in the presence of 0.2% BSA
Some compounds, each annotated with its measured log10 Ki.
Quick note: numbers are log10 of Ki, with µM as the unit.

Examples with answers:
I have this compound here, Cc1c(C)c(-c2cccc(COc3ccc4c(c3)OC[C@H]4CC(=O)O)c2)c(C)c(C)c1OC1CCS(=O)(=O)CC1 , and I need its recorded log10 Ki.
-1.40

What measured log10 Ki goes with Cc1cc(OCC2(O)CCS(=O)(=O)CC2)cc(C)c1-c1cccc(COc2ccc3c(c2)OC[C@H]3CC(=O)O)c1 ?
-1.62

So what's the measured log10 Ki for this one? Cc1c(Cl)c(OCCCS(C)(=O)=O)c(Cl)c(C)c1-c1cccc(COc2ccc3c(c2)OC[C@H]3CC(=O)O)c1
-1.92

Which log10 Ki is listed for Cc1cc(OCCCS(C)(=O)=O)c(Cl)c(C)c1-c1cccc(COc2ccc3c(c2)OC[C@H]3CC(=O)O)c1 ?
-1.72

Consider the compound shown here: Cc1cc(OCC2(C)COC2)cc(C)c1-c1cccc(COc2ccc3c(c2)OC[C@H]3CC(=O)O)c1 What is its recorded log10 Ki?
-1.60

Further cases:
Recorded log10 Ki of Cc1nc(C)c(COc2cc(C)c(-c3cccc(COc4ccc5c(c4)OC[C@H]5CC(=O)O)c3)c(C)c2)s1 , please.
-1.92

Which log10 Ki is reported for this compound? Cc1cc(OC2CCS(=O)(=O)CC2)cc(C)c1-c1cccc(COc2ccc3c(c2)OC[C@@H]3CC(=O)O)c1
-0.52

Report log10 Ki for Cc1cc(OCC2(C)COC2)cc(C)c1-c1cccc(COc2ccc3c(c2)OCC3CC(=O)O)c1 (racemic) please.
-1.68

* * *

test system: Free fatty acid receptor 1 (Rattus norvegicus)
Sequence (Q8K3T4 whole entry): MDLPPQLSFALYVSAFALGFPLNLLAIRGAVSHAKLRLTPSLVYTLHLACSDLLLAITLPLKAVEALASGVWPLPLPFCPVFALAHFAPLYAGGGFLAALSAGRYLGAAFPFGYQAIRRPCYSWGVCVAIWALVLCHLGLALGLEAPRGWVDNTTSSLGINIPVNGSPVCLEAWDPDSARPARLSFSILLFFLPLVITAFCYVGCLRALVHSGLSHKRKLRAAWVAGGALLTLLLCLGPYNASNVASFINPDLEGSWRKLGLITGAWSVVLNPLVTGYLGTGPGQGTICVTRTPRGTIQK
assay name: Displacement of 3-[4-({2',6'-dimethyl-6-[(4-[3H])-phenylmethoxy]biphenyl-3-yl}methoxy)phenyl]propanoic acid from rat GPR40 expressed in CHO cells after 90 mins by liquid scintillation counting in the presence of 0.2%BSA
result type: log10 of Ki (log10 of the value in nM)
Heads up, the numbers here are log10 of Ki in nM units.

log10 of Ki lookup needed for CCOCCOc1cc(C)c(-c2cccc(COc3ccc4c(c3)OC[C@H]4CC(=O)O)c2)c(C)c1 , thanks.
2.38

Given the entry Cc1cc(OC2CCN(C)CC2)cc(C)c1-c1cccc(COc2ccc3c(c2)OC[C@H]3CC(=O)O)c1.Cl , report its measured log10 of Ki.
1.82

# input molecule: CCOCCOc1cc(C)c(-c2cccc(COc3ccc4c(c3)OC[C@@H]4CC(=O)O)c2)c(C)c1 ; wanted: its log10 of Ki
3.87

log10 of Ki lookup needed for CCOCCOc1cc(C)c(-c2cccc(COc3ccc4c(c3)OCC4CC(=O)O)c2)c(C)c1 (racemic) , thanks.
2.48

Given the molecule Cc1cc(OC2CCS(=O)(=O)CC2)cc(C)c1-c1cccc(COc2ccc3c(c2)OCC3CC(=O)O)c1 (racemic) , what is its reported log10 of Ki?
2.32

What value of log10 of Ki has been recorded for this entry: Cc1cc(OCCCN2CCCC2=O)cc(C)c1-c1cccc(COc2ccc3c(c2)OC[C@H]3CC(=O)O)c1
2.23

* * *

test system: Free fatty acid receptor 1 (Homo sapiens)
assay name: Displacement of 3-[4-({2',6'-dimethyl-6-[(4-[3H])-phenylmethoxy]biphenyl-3-yl}methoxy)phenyl]propanoic acid from human GPR40 expressed in CHO cells after 90 mins by liquid scintillation counting in the presence of 0.2% BSA
result type: pKi
Just the number, please; pKi means minus log10 of the concentration in mol/L.

# input compound: Cc1cc(OCCCS(C)(=O)=O)c(F)c(C)c1-c1cccc(COc2ccc3c(c2)OC[C@H]3CC(=O)O)c1 ; wanted: its pKi
7.74

May I ask what pKi has been recorded for Cc1cc(OCC2(C)COC2)cc(C)c1-c1cccc(COc2ccc3c(c2)OC[C@@H]3CC(=O)O)c1 ?
6.57

Using the record for CCc1cc(OCCCS(C)(=O)=O)cc(CC)c1-c1cccc(COc2ccc3c(c2)OC[C@H]3CC(=O)O)c1 , report its pKi.
7.96

Request the reported pKi associated with Cc1cc(OC2CCN(C)CC2)cc(C)c1-c1cccc(COc2ccc3c(c2)OC[C@H]3CC(=O)O)c1.Cl
8.06

* * *

Tested on: HepG2
assay name: Induction of apoptosis in human HepG2 cells assessed as caspase 3/7 activity at 30 uM after 1 day by CaspaseGlo assay relative to staurosporine
Type: cell-based
test context: hepg2, 24 h
result type: Activity (%)
Could you give me the number in %? Just the number is fine.

Below: 4 compounds and their reported Activity.
Name the reported Activity value associated with the compound Cc1cc(OCC2(C)COC2)cc(C)c1-c1cccc(COc2ccc3c(c2)OCC3CC(=O)O)c1 (racemic)
23.6

Which Activity value is on record for Cc1c(C)c(-c2cccc(COc3ccc4c(c3)OC[C@H]4CC(=O)O)c2)c(C)c(C)c1OCCCS(C)(=O)=O ?
-1.1

Reported Activity for CCc1cc(OCCCS(C)(=O)=O)cc(CC)c1-c1cccc(COc2ccc3c(c2)OC[C@H]3CC(=O)O)c1 : what is it?
12.4

Bench note: what Activity did CCOCCOc1cc(C)c(-c2cccc(COc3ccc4c(c3)OCC4CC(=O)O)c2)c(C)c1 (racemic) show?
3.2

New cases:
Look up Activity: Cc1cc(OCC2(C)COC2)cc(C)c1-c1cccc(COc2ccc3c(c2)OC[C@@H]3CC(=O)O)c1
20.9

Request the reported Activity associated with Cc1cc(OC2CCS(=O)(=O)CC2)cc(C)c1-c1cccc(COc2ccc3c(c2)OC[C@H]3CC(=O)O)c1
-2.5

Find the recorded Activity belonging to Cc1c(C)c(-c2cccc(COc3ccc4c(c3)OC[C@H]4CC(=O)O)c2)c(C)c(C)c1OC1CCS(=O)(=O)CC1 and report it.
12.3

I'd like to know its Activity. The compound in question is CCOCCOc1cc(C)c(-c2cccc(COc3ccc4c(c3)OC[C@@H]4CC(=O)O)c2)c(C)c1
10.5

* * *

test system: UniProt O14842
assay name: Agonist activity at human GP40 receptor expressed in CHO cells assessed as increase in intracellular calcium level at 10 uM for 90 secs by FLIPR assay in the presence of 0.1% BSA relative to gamma-linolenic acid
Type: functional, cell-based
Efficacy by entry:

Known Efficacy results, listed for orientation:
Sample CCS(=O)(=O)CCOc1cc(C)c(-c2cccc(COc3ccc4c(c3)OC[C@H]4CC(=O)O)c2)c(C)c1 — what was its Efficacy?
107%

// lookup Efficacy for CCOCCOc1cc(C)c(-c2cccc(COc3ccc4c(c3)OCC4CC(=O)O)c2)c(C)c1 (racemic)
103%

Value lookup for Efficacy; key = Cc1c(Cl)c(OCCCS(C)(=O)=O)c(Cl)c(C)c1-c1cccc(COc2ccc3c(c2)OC[C@H]3CC(=O)O)c1
104%

Give the measured Efficacy of Cc1c(C)c(-c2cccc(COc3ccc4c(c3)OC[C@H]4CC(=O)O)c2)c(C)c(C)c1OC1CCS(=O)(=O)CC1 .
104%

Continuing:
// returns reported Efficacy for input Cc1cc(OCC2(O)CCS(=O)(=O)CC2)cc(C)c1-c1cccc(COc2ccc3c(c2)OC[C@H]3CC(=O)O)c1
107%

Could you tell me which Efficacy is on file for Cc1cc(OCCCS(C)(=O)=O)c(Cl)c(C)c1-c1cccc(COc2ccc3c(c2)OC[C@H]3CC(=O)O)c1 ?
104%

For Cc1cc(OC2CCS(=O)(=O)CC2)cc(C)c1-c1cccc(COc2ccc3c(c2)OC[C@@H]3CC(=O)O)c1 , what is its reported Efficacy?
103%

Consider the compound shown here: Cc1cc(OCC2(C)COC2)cc(C)c1-c1cccc(COc2ccc3c(c2)OC[C@H]3CC(=O)O)c1 What is its recorded Efficacy?
103%

Need Efficacy of Cc1cc(OC2CCS(=O)(=O)CC2)cc(C)c1-c1cccc(COc2ccc3c(c2)OC[C@H]3CC(=O)O)c1 , thanks.
103%

Fill in: Efficacy of Cc1nc(C)c(COc2cc(C)c(-c3cccc(COc4ccc5c(c4)OC[C@H]5CC(=O)O)c3)c(C)c2)s1 is ___
107%

Data request, read-out Efficacy, for Cc1cc(OCc2cccc3nccn23)cc(C)c1-c1cccc(COc2ccc3c(c2)OC[C@H]3CC(=O)O)c1
107%

Which measured Efficacy value corresponds to Cc1cc(OCC2(C)COC2)cc(C)c1-c1cccc(COc2ccc3c(c2)OC[C@@H]3CC(=O)O)c1 ?
103%

Given Cc1cc(OC2CCS(=O)(=O)CC2)cc(C)c1-c1cccc(COc2ccc3c(c2)OCC3CC(=O)O)c1 (racemic) , state its recorded Efficacy.
103%

Item CCc1cc(OCCCS(C)(=O)=O)cc(CC)c1-c1cccc(COc2ccc3c(c2)OC[C@H]3CC(=O)O)c1 has what recorded Efficacy?
104%
